# system under test: Adenosine receptor A1 (Homo sapiens, UniProt P30542)
# Sequence (P30542 whole entry): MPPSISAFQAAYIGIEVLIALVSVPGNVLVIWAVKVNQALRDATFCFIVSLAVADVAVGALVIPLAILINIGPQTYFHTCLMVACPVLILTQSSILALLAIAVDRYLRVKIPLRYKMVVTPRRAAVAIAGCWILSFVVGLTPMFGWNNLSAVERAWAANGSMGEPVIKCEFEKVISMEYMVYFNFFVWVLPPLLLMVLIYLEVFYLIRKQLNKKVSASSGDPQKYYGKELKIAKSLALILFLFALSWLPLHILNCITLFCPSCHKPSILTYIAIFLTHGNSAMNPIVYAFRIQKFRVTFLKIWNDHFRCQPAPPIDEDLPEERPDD
# assay comment: Inverse agonist activity at human A1AR expressed in CHO cells assessed as increase in forskolin-stimulated cAMP production by alphascreen assay
Threshold check on EC50: strictly below 90 nM is y; on or above 90 nM is n.

structure_string=N#Cc1c(N)nc(SCc2ccccn2)c(C#N)c1-c1ccco1 system_under_test="Adenosine receptor A1 (Homo sapiens, UniProt P30542)" category=y
structure_string=COC(=O)c1cccc(CSc2nc(N)c(C#N)c(-c3cccs3)c2C#N)c1 system_under_test="Adenosine receptor A1 (Homo sapiens, UniProt P30542)" category=y
structure_string=N#Cc1c(N)nc(SCC(=O)OCc2ccccc2)c(C#N)c1-c1ccco1 system_under_test="Adenosine receptor A1 (Homo sapiens, UniProt P30542)" category=n
structure_string=N#Cc1c(N)nc(SCCO)c(C#N)c1-c1cccs1 system_under_test="Adenosine receptor A1 (Homo sapiens, UniProt P30542)" category=n
structure_string=N#Cc1c(N)nc(SCc2cccc(C(=O)O)c2)c(C#N)c1-c1ccco1 system_under_test="Adenosine receptor A1 (Homo sapiens, UniProt P30542)" category=y
structure_string=N#Cc1cccc(CSc2nc(N)c(C#N)c(-c3ccco3)c2C#N)c1 system_under_test="Adenosine receptor A1 (Homo sapiens, UniProt P30542)" category=y
structure_string=N#Cc1c(N)nc(SCC(=O)c2ccccc2)c(C#N)c1-c1ccco1 system_under_test="Adenosine receptor A1 (Homo sapiens, UniProt P30542)" category=y
structure_string=COC(=O)c1cccc(CSc2nc(N)c(C#N)c(-c3ccoc3)c2C#N)c1 system_under_test="Adenosine receptor A1 (Homo sapiens, UniProt P30542)" category=y
structure_string=N#Cc1c(N)nc(SCCO)c(C#N)c1-c1ccsc1 system_under_test="Adenosine receptor A1 (Homo sapiens, UniProt P30542)" category=n
structure_string=COC(=O)c1cccc(CSc2nc(N)c(C#N)c(-c3cccnc3)c2C#N)c1 system_under_test="Adenosine receptor A1 (Homo sapiens, UniProt P30542)" category=y
structure_string=N#Cc1c(N)nc(SCCO)c(C#N)c1-c1ccco1 system_under_test="Adenosine receptor A1 (Homo sapiens, UniProt P30542)" category=n
structure_string=N#Cc1c(N)nc(SCCO)c(C#N)c1-c1ccoc1 system_under_test="Adenosine receptor A1 (Homo sapiens, UniProt P30542)" category=y
structure_string=N#Cc1c(N)nc(SCCO)c(C#N)c1-c1cccnc1 system_under_test="Adenosine receptor A1 (Homo sapiens, UniProt P30542)" category=n
structure_string=N#Cc1c(N)nc(SCc2cccc(CO)c2)c(C#N)c1-c1ccco1 system_under_test="Adenosine receptor A1 (Homo sapiens, UniProt P30542)" category=y
structure_string=COC(=O)c1ccc(CSc2nc(N)c(C#N)c(-c3ccco3)c2C#N)o1 system_under_test="Adenosine receptor A1 (Homo sapiens, UniProt P30542)" category=n
structure_string=COC(=O)c1cccc(CSc2nc(N)c(C#N)c(-c3ccco3)c2C#N)c1 system_under_test="Adenosine receptor A1 (Homo sapiens, UniProt P30542)" category=y
structure_string=N#Cc1c(N)nc(SCc2cccc(C(N)=O)c2)c(C#N)c1-c1ccco1 system_under_test="Adenosine receptor A1 (Homo sapiens, UniProt P30542)" category=y
structure_string=N#Cc1c(N)nc(SCc2cccnc2)c(C#N)c1-c1ccco1 system_under_test="Adenosine receptor A1 (Homo sapiens, UniProt P30542)" category=y
